System: Trichophyton mentagrophytes
Assay: Antifungal activity against Trichophyton mentagrophytes ATCC 9129 assessed as growth inhibition at pH 7 incubated for 5 days in absence of 10% beef serum
Assay type: functional
Conditions: ATCC 9129, 120 h, read-out: MIC100
assay.metric: MIC (µg/mL)
Give bare numbers, in µg/mL.

Examples from the recorded data:
>  <structure.notation>
CCCCOC(=O)/C=C/CBr

>  <MIC / µg/mL>
3

$$$$
>  <structure.notation>
COC(=O)/C=C/CCl

>  <MIC / µg/mL>
60

$$$$
>  <structure.notation>
CCCCCCOC(=O)/C=C/CBr

>  <MIC / µg/mL>
4

$$$$
>  <structure.notation>
CCCOC(=O)/C=C/CBr

>  <MIC / µg/mL>
3

$$$$
>  <structure.notation>
CCOC(=O)/C=C/CI

>  <MIC / µg/mL>
2

$$$$

Data request: Query: MIC; subject: `CCCCCOC(=O)/C=C/CBr`
Data returned: 2

###

Test system: Trichophyton mentagrophytes
Test: Antifungal activity against Trichophyton mentagrophytes ATCC 9129 assessed as growth inhibition at pH 5.6 incubated for 5 days in absence of 10% beef serum
Format: functional
Details: ATCC 9129, 120 h, read-out: MIC100
Please go through the items and note down their MIC.

Examples from the recorded data:
>  <compound>
CCCCCOC(=O)/C=C/CBr

>  <val>
< 1 µg/mL

$$$$
>  <compound>
C[C@@H]1[C@H](O)[C@@H](C)/C=C/C=C/C=C/C=C/C=C/C=C/C=C/[C@H](O[C@@H]2O[C@H](C)[C@@H](O)[C@H](N)[C@@H]2O)C[C@@H]2O[C@](O)(C[C@@H](O)C[C@@H](O)[C@H](O)CC[C@@H](O)C[C@@H](O)CC(=O)O[C@H]1C)C[C@H](O)[C@H]2C(=O)O

>  <val>
< 1 µg/mL

$$$$
>  <compound>
CCOC(=O)/C=C/CBr

>  <val>
< 1 µg/mL

$$$$
>  <compound>
COC(=O)/C=C/CSC

>  <val>
90 µg/mL

$$$$
>  <compound>
CCCOC(=O)/C=C/CI

>  <val>
< 1 µg/mL

$$$$
>  <compound>
CCOC(=O)/C=C/CI

>  <val>
< 1 µg/mL

$$$$
>  <compound>
CCCCCCOC(=O)/C=C/CI

>  <val>
< 1 µg/mL

$$$$
>  <compound>
CCCCCCOC(=O)/C=C/CBr

>  <val>
< 1 µg/mL

$$$$

Hi! Can you tell me MIC for each of these compounds?
1. CCCOC(=O)/C=C/CBr
2. CCCCOC(=O)/C=C/CI
3. CCCCOC(=O)/C=C/CBr
4. COC(=O)/C=C/CCl
5. COC(=O)/C=C/CI
6. COC(=O)/C=C/CBr
7. CC1/C=C/C=C/C=C/C=C/C=C/C=C/C=C/C(OC2O[C@H](C)[C@@H](O)[C@H](N)[C@@H]2O)CC(O)C(C(=O)O)C(O)CC(=O)CC(O)CC(O)CC(O)CC(=O)CCCC(=O)CC(=O)OC1C(C)CC(C)C(O)CC(=O)c1ccc(N)cc1 (stereo partly specified)
8. CCCCCOC(=O)/C=C/CI

Data returned:
1. < 1 µg/mL
2. < 1 µg/mL
3. < 1 µg/mL
4. 4 µg/mL
5. < 1 µg/mL
6. 3 µg/mL
7. < 1 µg/mL
8. < 1 µg/mL

###

System: Aspergillus niger
Assay: Antifungal activity against Aspergillus niger ATCC 1004 assessed as growth inhibition at pH 7 incubated for 5 days in absence of 10% beef serum
Assay type: functional
Details: ATCC 1004, 120 h, read-out: MIC100
Lab note: cut-off is 30 µg/mL. Strictly less in MIC is Satisfied. Exactly 30 µg/mL or more is Not satisfied.

>  <compound>
C[C@@H]1[C@H](O)[C@@H](C)/C=C/C=C/C=C/C=C/C=C/C=C/C=C/[C@H](O[C@@H]2O[C@H](C)[C@@H](O)[C@H](N)[C@@H]2O)C[C@@H]2O[C@](O)(C[C@@H](O)C[C@@H](O)[C@H](O)CC[C@@H](O)C[C@@H](O)CC(=O)O[C@H]1C)C[C@H](O)[C@H]2C(=O)O

>  <class.label>
Satisfied

$$$$

Data request: is_below(MIC, 30 µg/mL) for `COC(=O)/C=C/CBr` ?
Data returned: Not satisfied

Data request: is_below(MIC, 30 µg/mL) for `CCCCCOC(=O)/C=C/CBr` ?
Data returned: Not satisfied

###

System: Aspergillus niger
Experiment: Antifungal activity against Aspergillus niger ATCC 1004 assessed as growth inhibition at pH 5.6 incubated for 5 days in presence of 10% beef serum
Assay type: functional
Details: ATCC 1004, 120 h, read-out: MIC100
Lab note: cut-off is 70 µg/mL. Strictly less in MIC is rule met. Exactly 70 µg/mL or more is rule not met.

>  <molecule>
CCOC(=O)/C=C/CI

>  <class.label>
rule met

$$$$

Data request: is_below(MIC, 70 µg/mL) for `CCCOC(=O)/C=C/CBr` ?
Data returned: rule not met

Data request: is_below(MIC, 70 µg/mL) for `CCCOC(=O)/C=C/CI` ?
Data returned: rule met

Data request: is_below(MIC, 70 µg/mL) for `CCOC(=O)/C=C/CBr` ?
Data returned: rule not met

Data request: is_below(MIC, 70 µg/mL) for CC1/C=C/C=C/C=C/C=C/C=C/C=C/C=C/C(OC2O[C@H](C)[C@@H](O)[C@H](N)[C@@H]2O)CC(O)C(C(=O)O)C(O)CC(=O)CC(O)CC(O)CC(O)CC(=O)CCCC(=O)CC(=O)OC1C(C)CC(C)C(O)CC(=O)c1ccc(N)cc1 (stereo not given in full) ?
Data returned: rule met

Data request: is_below(MIC, 70 µg/mL) for `COC(=O)/C=C/CBr` ?
Data returned: rule met

Data request: is_below(MIC, 70 µg/mL) for `CCCCOC(=O)/C=C/CBr` ?
Data returned: rule not met

Data request: is_below(MIC, 70 µg/mL) for C[C@@H]1[C@H](O)[C@@H](C)/C=C/C=C/C=C/C=C/C=C/C=C/C=C/[C@H](O[C@@H]2O[C@H](C)[C@@H](O)[C@H](N)[C@@H]2O)C[C@@H]2O[C@](O)(C[C@@H](O)C[C@@H](O)[C@H](O)CC[C@@H](O)C[C@@H](O)CC(=O)O[C@H]1C)C[C@H](O)[C@H]2C(=O)O [AMPHOTERICIN B] ?
Data returned: rule met

Data request: is_below(MIC, 70 µg/mL) for `COC(=O)/C=C/CI` ?
Data returned: rule met

###

Tested on: Aspergillus niger
Test: Antifungal activity against Aspergillus niger ATCC 1004 assessed as growth inhibition at pH 7 incubated for 5 days in presence of 10% beef serum
Assay type: functional
Conditions: ATCC 1004, 120 h, read-out: MIC100
assay.metric: MIC (mg/L)
Answers are plain numbers, in mg/L.

>  <structure.notation>
COC(=O)/C=C/CBr

>  <MIC / mg/L>
60

$$$$
>  <structure.notation>
CCCOC(=O)/C=C/CBr

>  <MIC / mg/L>
80

$$$$

Here is another compound to look at.
Data request: Query: MIC; subject: `CCCCOC(=O)/C=C/CBr`
Data returned: 80

###

Please go through the items and note down their MIC.
System: Aspergillus niger
Test: Antifungal activity against Aspergillus niger ATCC 1004 assessed as growth inhibition at pH 7 incubated for 5 days in absence of 10% beef serum
Type: functional
Conditions: ATCC 1004, 120 h, read-out: MIC100
Numbers only, in µg/mL.

>  <compound>
CCCOC(=O)/C=C/CBr

>  <unit.info>
µg/mL

>  <val>
60

$$$$
>  <compound>
CC1/C=C/C=C/C=C/C=C/C=C/C=C/C=C/C(OC2O[C@H](C)[C@@H](O)[C@H](N)[C@@H]2O)CC(O)C(C(=O)O)C(O)CC(=O)CC(O)CC(O)CC(O)CC(=O)CCCC(=O)CC(=O)OC1C(C)CC(C)C(O)CC(=O)c1ccc(N)cc1 (some centres undefined)

>  <unit.info>
µg/mL

>  <val>
5

$$$$
>  <compound>
CCCCCOC(=O)/C=C/CI

>  <unit.info>
µg/mL

>  <val>
30

$$$$
>  <compound>
CCOC(=O)/C=C/CI

>  <unit.info>
µg/mL

>  <val>
40

$$$$
>  <compound>
CCCOC(=O)/C=C/CI

>  <unit.info>
µg/mL

>  <val>
30

$$$$
>  <compound>
COC(=O)/C=C/CI

>  <unit.info>
µg/mL

>  <val>
30

$$$$
>  <compound>
CCCCOC(=O)/C=C/CI

>  <unit.info>
µg/mL

>  <val>
20

$$$$
>  <compound>
CCOC(=O)/C=C/CBr

>  <unit.info>
µg/mL

>  <val>
70

$$$$

Here is another compound to look at.
Data request: Request - read-out MIC | tested on Aspergillus niger | compound `CCCCOC(=O)/C=C/CBr`
Data returned: 50
